# Assay procedure: Selectivity index, ratio of IC50 for hTERT-BJ cells to IC50 for human CCRF-CEM cells
# Assay type: toxicity
# Test parameters: hTERT-BJ cells versus CCRF-CEM cells, read-out: Ratio IC50
# maps each entry to its selectivity ratio

- Structure as smiles: "CCOc1ccc(NC(=O)c2cc3cc(Br)ccc3oc2=O)cc1"
  selectivity ratio: "> 2.3"
- Structure as smiles: "O=C(N/N=C/c1ccncc1)c1cc2cc(Br)ccc2oc1=O"
  selectivity ratio: "> 7.88"
- Structure as smiles: "CCOc1ccc2nc(Cl)c(/C=N/NC(=O)c3cc4cc([N+](=O)[O-])ccc4oc3=O)cc2c1"
  selectivity ratio: "> 3.19"
- Structure as smiles: "O=C(N/N=C/c1cccnc1)c1cc2cc([N+](=O)[O-])ccc2oc1=O"
  selectivity ratio: "> 2.92"
- Structure as smiles: "O=C(N/N=C/c1cc2ccccc2nc1Cl)c1cc2cc([N+](=O)[O-])ccc2oc1=O"
  selectivity ratio: "> 1.92"

---

# Tested on: HepG2
# Assay procedure: Antiproliferative activity against human HepG2 cells after 48 hrs by resazurin dye-based fluorescence assay
# Format: functional, cell-based
# Test parameters: HepG2, 48 h
pIC50: −log10 of the molar value.
Short version: pIC50 at least 5 is Met, less is Not met.

- Structure as smiles: "COc1cccc2c1C(=O)c1c(O)c3c(c(O)c1C2=O)C[C@@](O)(C(=O)CO)C[C@@H]3O[C@H]1C[C@H](N)[C@H](O)[C@H](C)O1"
  Target: "HepG2"
  Discrete label: "Met"
- Structure as smiles: "Cc1noc(NS(=O)(=O)c2ccc(NC(=O)c3cc4ccc(O)cc4oc3=O)cc2)c1C"
  Target: "HepG2"
  Discrete label: "Not met"
- Structure as smiles: "O=C(N/N=C/c1cc2ccccc2nc1Cl)c1cc2cc([N+](=O)[O-])ccc2oc1=O"
  Target: "HepG2"
  Discrete label: "Not met"
- Structure as smiles: "O=C(N/N=C/c1ccncc1)c1cc2cc(Br)ccc2oc1=O"
  Target: "HepG2"
  Discrete label: "Met"
- Structure as smiles: "O=C(N/N=C/c1ccncc1)c1cc2cc([N+](=O)[O-])ccc2oc1=O"
  Target: "HepG2"
  Discrete label: "Not met"
- Structure as smiles: "CCOc1ccc2nc(Cl)c(/C=N/NC(=O)c3cc4ccccc4oc3=O)cc2c1"
  Target: "HepG2"
  Discrete label: "Not met"
- Structure as smiles: "CCOc1ccc(NC(=O)c2cc3ccc(O)cc3oc2=O)cc1"
  Target: "HepG2"
  Discrete label: "Not met"
- Structure as smiles: "CCOc1ccc2nc(Cl)c(/C=N/NC(=O)c3cc4ccc(O)cc4oc3=O)cc2c1"
  Target: "HepG2"
  Discrete label: "Not met"
- Structure as smiles: "CCOc1ccc2nc(Cl)c(/C=N/NC(=O)c3cc4cc([N+](=O)[O-])ccc4oc3=O)cc2c1"
  Target: "HepG2"
  Discrete label: "Not met"

---

# Tested on: hTERT-BJ
# Assay procedure: Cytotoxicity against hTERT-BJ cells at 50 uM after 48 hrs by resazurin dye-based fluorescence assay relative to control
# Format: cell-based
# Test parameters: human
Short version: Activity at least 3% is Criterion met, less is Criterion not met.

- Structure as smiles: "CCOc1ccc2nc(Cl)c(/C=N/NC(=O)c3cc4cc([N+](=O)[O-])ccc4oc3=O)cc2c1"
  Discrete label: "Criterion met"
- Structure as smiles: "O=C(N/N=C/c1cccnc1)c1cc2ccccc2oc1=O"
  Discrete label: "Criterion not met"
- Structure as smiles: "CCOc1ccc(NC(=O)c2cc3ccc(O)cc3oc2=O)cc1"
  Discrete label: "Criterion met"
- Structure as smiles: "O=C(N/N=C/c1cc2ccccc2nc1Cl)c1cc2cc(Br)ccc2oc1=O"
  Discrete label: "Criterion met"
- Structure as smiles: "O=C(N/N=C/c1ccncc1)c1cc2cc(Br)ccc2oc1=O"
  Discrete label: "Criterion not met"
- Structure as smiles: "O=C(N/N=C/c1cccnc1)c1cc2cc([N+](=O)[O-])ccc2oc1=O"
  Discrete label: "Criterion met"
- Structure as smiles: "Cc1noc(NS(=O)(=O)c2ccc(NC(=O)c3cc4ccc(O)cc4oc3=O)cc2)c1C"
  Discrete label: "Criterion met"
- Structure as smiles: "CCOc1ccc(NC(=O)c2cc3cc(Br)ccc3oc2=O)cc1"
  Discrete label: "Criterion met"
- Structure as smiles: "O=C(N/N=C/c1cccnc1)c1cc2ccc(O)cc2oc1=O"
  Discrete label: "Criterion not met"
- Structure as smiles: "CCOc1ccc2nc(Cl)c(/C=N/NC(=O)c3cc4ccccc4oc3=O)cc2c1"
  Discrete label: "Criterion met"
- Structure as smiles: "O=C(N/N=C/c1ccncc1)c1cc2ccccc2oc1=O"
  Discrete label: "Criterion not met"
- Structure as smiles: "O=C(N/N=C/c1cccnc1)c1cc2cc(Br)ccc2oc1=O"
  Discrete label: "Criterion not met"
- Structure as smiles: "CCOc1ccc2nc(Cl)c(/C=N/NC(=O)c3cc4ccc(O)cc4oc3=O)cc2c1"
  Discrete label: "Criterion met"
- Structure as smiles: "O=C(N/N=C/c1ccncc1)c1cc2cc([N+](=O)[O-])ccc2oc1=O"
  Discrete label: "Criterion met"
- Structure as smiles: "Cc1noc(NS(=O)(=O)c2ccc(NC(=O)c3cc4cc(Br)ccc4oc3=O)cc2)c1C"
  Discrete label: "Criterion met"
- Structure as smiles: "CCOc1ccc(NC(=O)c2cc3cc([N+](=O)[O-])ccc3oc2=O)cc1"
  Discrete label: "Criterion met"
- Structure as smiles: "O=C(N/N=C/c1cc2ccccc2nc1Cl)c1cc2cc([N+](=O)[O-])ccc2oc1=O"
  Discrete label: "Criterion not met"
- Structure as smiles: "Cc1noc(NS(=O)(=O)c2ccc(NC(=O)c3cc4cc([N+](=O)[O-])ccc4oc3=O)cc2)c1C"
  Discrete label: "Criterion met"
- Structure as smiles: "Cc1noc(NS(=O)(=O)c2ccc(NC(=O)c3cc4ccccc4oc3=O)cc2)c1C"
  Discrete label: "Criterion met"
- Structure as smiles: "CCOc1ccc2nc(Cl)c(/C=N/NC(=O)c3cc4cc(Br)ccc4oc3=O)cc2c1"
  Discrete label: "Criterion not met"
